System: lambsquarters
Test: Test C pre-/postemergence test
Assay type: in vivo, Chenopodium album
Conditions: 62 g ai/ha, Preemergence; scale 0 to 100
Quick reference: Lambsquarters plant response rating of the listed items.
Answer as a number with no unit attached.

In: GET /values?readout=Lambsquarters plant response rating&item= CC(c1c(C(F)(F)F)nn(C)c1OC(F)F)S(=O)(=O)c1cc(C(C)(C)C)cc[n+]1[O-] (racemic)
Out: 40

In: Lookup Cn1nc(C(F)(F)F)c(C[S+]([O-])c2ccc(F)c[n+]2[O-])c1Cl (centres unmarked)
Out: 90

In: Lookup Cn1nc(C(F)(F)F)c(C[S+]([O-])c2cccc[n+]2[O-])c1OCC(F)(F)F (racemic)
Out: 100

----------
Quick reference: Ryegrass, Italian plant response rating of the listed items.
Tested on: Italian ryegrass
Test: Test C pre-/postemergence test
Assay type: in vivo, Lolium multiflorum
Conditions: 62 g ai/ha, preemergence; scale 0 (no effect) to 100 (complete control)
From the text: Seeds of plant species selected from blackgrass (Alopecurus myosuroides), downy brome (Bromus tectorum), green foxtail (Setaria viridis), Italian ryegrass (Lolium multiflorum), wheat (Triticum aestivum), wild oat (Avena fatua), catchweed bedstraw (Galium aparine), Russian thistle (Salsola kali), […] […]
Answer as a number with no unit attached.

In: GET /values?readout=Ryegrass, Italian plant response rating&item= Cn1nc(C(F)(F)F)c(C(Cl)S(=O)(=O)c2cccc[n+]2[O-])c1Cl (stereo not shown)
Out: 70

----------
Tested on: green foxtail
Experiment: Test F preemergence test
Format: in vivo, Setaria viridis
Conditions: Preemergence; 31 g ai/ha; scale 0 to 100
Outcome label depends on Plant response rating, Foxtail, Green relative to 60: at/above gives met, below gives not met.

compound	class-label
CC(c1c(C(F)(F)F)nn(C)c1OC(F)F)S(=O)(=O)c1cccc[n+]1[O-] (stereo not drawn) [Compound 5]	met
Cn1nc(C(F)(F)F)c(CS(=O)(=O)c2cccc[n+]2[O-])c1OC(F)F [Compound 4]	met
Cn1nc(C(F)(F)F)c(C[S+]([O-])c2cccc[n+]2[O-])c1OCC(F)(F)F (racemic) [Compound 28]	met
Cc1cc[n+]([O-])c([S+]([O-])Cc2c(C(F)(F)F)nn(C)c2Cl)c1 (racemic) [Compound 20]	not met

In: Record Cn1nc(C(F)(F)F)c(C[S+]([O-])c2ccc(Cl)c[n+]2[O-])c1OCC(F)(F)F (racemic) [Compound 62] ; criterion: Plant response rating, Foxtail, Green no lower than 60. Met?
Out: met

In: Lookup Cc1cc[n+]([O-])c(S(=O)(=O)Cc2c(C(F)(F)F)nn(C)c2OC(F)F)c1 [Compound 2]
Out: met

In: Lookup Cc1cc[n+]([O-])c(S(=O)(=O)C(Cl)c2c(C(F)(F)F)nn(C)c2Cl)c1 (racemic) [Compound 22]
Out: not met

In: Lookup CC(Oc1c(CS(=O)(=O)c2cccc[n+]2[O-])c(C(F)(F)F)nn1C)C(F)(F)F (stereo not drawn) [Compound 82]
Out: met

----------
Tested on: bermudagrass
Experiment: Test F preemergence test
Assay type: in vivo, Cynodon dactylon
Details: Preemergence; 31 g ai/ha; scale 0 to 100
# True = Plant response rating, Bermudagrass below 60 (exclusive); False = Plant response rating, Bermudagrass at/above 60

molecule	experimental-system	class-label
Cn1nc(C(F)(F)F)c(C[S+]([O-])c2ccc(F)c[n+]2[O-])c1OC(F)F (centres unmarked) [Compound 58]	bermudagrass	False
Cn1nc(C(F)(F)F)c(C[S+]([O-])c2ccc(Cl)c[n+]2[O-])c1OC(F)F (centres unmarked) [Compound 6]	bermudagrass	False
CCn1nc(C(F)(F)F)c(CS(=O)(=O)c2cc(C)cc[n+]2[O-])c1OCC(F)(F)F [Compound 64]	bermudagrass	True
Cn1nc(C(F)(F)F)c(C[S+]([O-])c2cccc[n+]2[O-])c1OCC(F)(F)F (racemic) [Compound 28]	bermudagrass	True
Cc1cc[n+]([O-])c(S(=O)(=O)Cc2c(C(F)(F)F)nn(C)c2Cl)c1 [Compound 19]	bermudagrass	True

In: Hi there! Is Plant response rating, Bermudagrass for Cn1nc(C(F)(F)C(F)(F)F)c(C[S+]([O-])c2cccc[n+]2[O-])c1OCC(F)(F)F (centres unmarked) [Compound 79] below 60, do you know?
Out: False

In: Lookup Cc1cc[n+]([O-])c(S(=O)(=O)Cc2c(C(F)(F)F)nn(C)c2OC(F)F)c1 [Compound 2]
Out: False

In: Lookup Cc1cc[n+]([O-])c(S(=O)(=O)C(C)c2c(C(F)(F)F)nn(C)c2OC(F)F)c1 (centres unmarked) [Compound 11]
Out: False

In: Lookup Cc1cc[n+]([O-])c([S+]([O-])Cc2c(C(F)(F)F)nn(C)c2OCC(F)(F)F)c1 (racemic) [Compound 30]
Out: False

----------
Tested on: southern sandbur
Assay: Test F preemergence test
Type: in vivo, Cenchrus echinatus
Details: Preemergence, 62 g ai/ha; scale 0 to 100
Quick reference: Plant response rating, Sandbur of the listed items.
Answer as a number with no unit attached.

Answered cases to consult:
molecule	Plant response rating, Sandbur
CC(Oc1c(C[S+]([O-])c2ccc(Cl)c[n+]2[O-])c(C(F)(F)F)nn1C)C(F)(F)F (stereo not drawn)	100
CCn1nc(C(F)(F)F)c(C[S+]([O-])c2cc(C)cc[n+]2[O-])c1OCC(F)(F)F (racemic)	100
CCc1cc[n+]([O-])c(S(=O)(=O)Cc2c(C(F)(F)F)nn(C)c2OCC(F)(F)F)c1	65
Cn1nc(C(F)(F)F)c(C[S+]([O-])c2ccc(Cl)c[n+]2[O-])c1OCC(F)(F)F (racemic)	98
Cc1cc[n+]([O-])c(S(=O)(=O)Cc2c(C(F)(F)F)nn(C)c2OCC(F)(F)F)c1	100

Let us move to another entry and its Plant response rating, Sandbur.
In: GET /values?readout=Plant response rating, Sandbur&item= Cn1nc(C(F)(F)C(F)(F)F)c(C[S+]([O-])c2cccc[n+]2[O-])c1OCC(F)(F)F (stereo not drawn)
Out: 95

----------
System: barnyardgrass
Experiment: Test F preemergence test
Assay type: in vivo, Echinochloa crus-galli
Conditions: Preemergence; 31 g ai/ha; scale 0 to 100
# Yes = Plant response rating, Barnyardgrass below 80 (exclusive); No = Plant response rating, Barnyardgrass at/above 80

Would you please look over these solved cases?
molecule	class-label
Cc1cc[n+]([O-])c(S(=O)(=O)C(Cl)c2c(C(F)(F)F)nn(C)c2OCC(F)(F)F)c1 (racemic) [Compound 37]	Yes
Cc1cc[n+]([O-])c([S+]([O-])Cc2c(C(F)(F)F)nn(C)c2OCC(F)(F)F)c1 (racemic) [Compound 30]	Yes
Cc1cc[n+]([O-])c(S(=O)(=O)C(Cl)c2c(C(F)(F)F)nn(C)c2Cl)c1 (racemic) [Compound 22]	Yes
CC(Oc1c(C[S+]([O-])c2cccc[n+]2[O-])c(C(F)(F)F)nn1C)C(F)(F)F (stereo not drawn) [Compound 77]	No
CCc1cc[n+]([O-])c(S(=O)(=O)Cc2c(C(F)(F)F)nn(C)c2OCC(F)(F)F)c1 [Compound 60]	Yes

Next, consider the following molecule.
In: Hi there! Is Plant response rating, Barnyardgrass for Cn1nc(C(F)(F)F)c(C[S+]([O-])c2ccc(F)c[n+]2[O-])c1OC(F)F (stereo not drawn) [Compound 58] below 80, do you know?
Out: No

----------
Tested on: soybean
Test: Test C pre-/postemergence test
Format: in vivo, Glycine max
Settings: 125 g ai/ha, preemergence; scale 0 (no effect) to 100 (complete control)
metric-name: Soybean plant response rating
Answer as a number with no unit attached.

Answered cases to consult:
molecule	Soybean plant response rating
Cn1nc(C(F)(F)F)c(C[S+]([O-])c2ccc(F)c[n+]2[O-])c1OC(F)F (stereo not shown)	100
Cc1cc[n+]([O-])c(S(=O)(=O)Cc2c(C(F)(F)F)nn(C)c2OCC(F)F)c1	30

In: GET /values?readout=Soybean plant response rating&item= Cc1cc[n+]([O-])c(S(=O)(=O)C(Cl)c2c(C(F)(F)F)nn(C)c2OCC(F)(F)F)c1 (racemic)
Out: 10

In: Lookup C#CCOc1c(C[S+]([O-])c2cccc[n+]2[O-])c(C(F)(F)F)nn1C (stereo not shown)
Out: 80

In: Lookup Cn1nc(C(F)(F)F)c(C[S+]([O-])c2cccc[n+]2[O-])c1OCC(F)F (stereo not shown)
Out: 100

In: Lookup CC(C)c1cc[n+]([O-])c([S+]([O-])Cc2c(C(F)(F)F)nn(C)c2OC(F)F)c1 (stereo not shown)
Out: 85

In: Lookup "Cn1nc(OC(F)F)c(CS(=O)(=O)c2cccc[n+]2[O-])c1C(F)(F)F"
Out: 20

----------
Tested on: common ragweed
Assay: Test C pre-/postemergence test
Type: in vivo, Ambrosia elation
Details: Preemergence, 250 g ai/ha
Quick reference: Plant response rating (0 to 100), Ragweed of the listed items.

Answered cases to consult:
compound	recorded-result
Cn1nc(C(F)(F)F)c(C[S+]([O-])c2cccc[n+]2[O-])c1OC(F)F (stereo not shown) [Compound 3]	100
Cn1nc(C(F)(F)F)c(C[S+]([O-])c2ccc(Cl)c[n+]2[O-])c1OC(F)F (stereo not shown) [Compound 6]	40

In: GET /values?readout=Plant response rating (0 to 100), Ragweed&item= Cn1nc(C(F)(F)F)c(C[S+]([O-])c2cccc[n+]2[O-])c1Cl (stereo not shown) [Compound 8]
Out: 90

In: Lookup Cc1cc[n+]([O-])c(S(=O)(=O)Cc2c(C(F)(F)F)nn(C)c2OC(F)F)c1 [Compound 2]
Out: 100

In: Lookup Cn1nc(C(F)(F)F)c(C(Cl)S(=O)(=O)c2cccc[n+]2[O-])c1Cl (stereo not shown) [Compound 12]
Out: 20

In: Lookup Cn1nc(C(F)(F)F)c(CS(=O)(=O)c2cccc[n+]2[O-])c1OC(F)F [Compound 4]
Out: 100

In: Lookup Cc1cc[n+]([O-])c([S+]([O-])Cc2c(C(F)(F)F)nn(C)c2OC(F)F)c1 (stereo not shown) [Compound 1]
Out: 85
